# assay.remarks: gradient 5% acetonitrile 3 min, to 50% in 2 min, to 85% in 15 min, held 3 min, 100 µL/min
# test.parameters: column: Zorbax Extend-C18 2.1 x 50 mm; eluents: water / acetonitrile, 0.1% formic acid
assay.endpoint: RP-LC retention time (s)

Cc1csc(-c2ccc(N3CCN(C(=O)c4ccco4)CC3)nc2)n1 = 711
CCn1ccc(C(=O)N2CCCn3nc(-c4ccc(OC)cc4)cc3C2)n1 = 756
COc1ccccc1NC(=O)NCCc1nc2cccnc2n1C1CCCCC1 = 743
Fc1cc(F)cc(-c2nnc(Cc3nc(-c4ccc5c(c4)OCO5)no3)o2)c1 = 987
CC(C)Oc1ccc(CNC(=O)c2nnc(-c3ccc(S(=O)(=O)N4CCCC4)cc3)o2)cc1 = 1000

---

# assay.remarks: gradient 5% acetonitrile 3 min, to 50% in 2 min, to 85% in 15 min, held 3 min, 100 µL/min
# test.parameters: column: Zorbax Extend-C18 2.1 x 50 mm; eluents: water / acetonitrile, 0.1% formic acid
assay.endpoint: RP-LC retention time (s)

Recorded results for 5 molecules are shown here.
O=C(Cc1cn2cc(Br)ccc2n1)N1CCc2ccccc2C1 = 635
CN1C(=O)c2cc(S(=O)(=O)Nc3cc(F)cc(F)c3)ccc2Oc2cccnc21 = 936
CN(Cc1nc2cc(C(=O)N3CCCC3)ccc2n1C)C(=O)Nc1cccc(Br)c1 = 665
COc1cccc(CNC(=O)c2ccc(CN3CCN(C(C)C)C(=O)C3=O)cc2)c1 = 693
CCOc1ccc(-c2[nH]ncc2CN2C[C@@H]3CCN(S(C)(=O)=O)C[C@]3(CF)C2)cc1 = 661

P = COc1ccc(F)cc1S(=O)(=O)N1CCC2(CC1)NCCCN=C2NC1CCCC1
Q = CCCN(CC1CCOC1)C(=O)Nc1ccccc1C(F)(F)F (centres undefined)
Q) Endpoint returns the identifier whose RP-LC retention time is numerically larger, either P or Q . Mark your selection by writing its label.
A) Q

---

# assay.remarks: gradient 5% acetonitrile 3 min, to 50% in 2 min, to 85% in 15 min, held 3 min, 100 µL/min
# test.parameters: column: Zorbax Extend-C18 2.1 x 50 mm; eluents: water / acetonitrile, 0.1% formic acid
assay.endpoint: RP-LC retention time (s)

O=C(N1CCCC1c1noc(COCc2ccccc2)n1)C1(c2ccccc2)CC1 (stereo not given) = 1040
CCc1nc2cc(CNC(=O)Cc3ccc(Cl)cc3)ccc2n1C = 641
CC(C)N1C(=O)c2cccnc2Sc2cc(NC(=O)C3CCCCC3)ccc21 = 920
COc1cccc(-n2c(=O)c(C(=O)NCCc3ccccc3)c(O)c3cccnc32)c1 = 1200
O=C(NCc1ccco1)Nc1cccc(-c2noc(C3CCC3)n2)c1 = 912

---

# assay.remarks: gradient 5% acetonitrile 3 min, to 50% in 2 min, to 85% in 15 min, held 3 min, 100 µL/min
# test.parameters: column: Zorbax Extend-C18 2.1 x 50 mm; eluents: water / acetonitrile, 0.1% formic acid
assay.endpoint: RP-LC retention time (s)

Recorded results for 3 compounds are shown here.
CCCn1cc(CCNS(=O)(=O)c2ccccc2)c2cccnc21 = 786
CCOc1ccc(S(=O)(=O)N2CCC(C(=O)Nc3ccc(C(N)=O)cc3)CC2)cc1C = 782
CCN(Cc1ccccc1)Cc1cc(=O)n2cc(Cl)ccc2n1 = 616

I = CC(C)N1CCCn2cc(S(=O)(=O)Nc3ccc(F)cc3)cc2C1=O
II = COc1ccc2c(c1)-c1nc(NC(=O)c3ccc(Br)cc3)sc1CC2
Q) Between item I and item II , which reported RP-LC retention time is smaller? Mark your selection by writing its label.
A) I
(I: 754 s, II: 1250 s)
